tested on: M. tuberculosis H37Rv_DdnL49P_gfp; format: cell-based, Mycobacterium tuberculosis; conditions: read-out: EC50 H37Rv_DdnL49P_gfp
pEC50: −log10 of the molar value.
So I've got a bunch of compounds here, and I need their pEC50 values.

Exam item: Which pEC50 value belongs to O=C(Nc1nc2ccc(-c3ccc(Cl)c(Cl)c3)cc2s1)[C@@H]1C2C=CC(C2)[C@@H]1C(=O)O (stereo partly drawn) ?
Marked response: 5.30 to 6.00

Exam item: How about O=C(Nc1nc2ccc(I)cc2s1)[C@@H]1C2C=CC(C2)[C@@H]1C(=O)O (stereo partly drawn) ?
Marked response: 5.30 to 6.00

Exam item: What about O=C(Nc1nc2ccc(Oc3ccc(Br)cn3)cc2s1)[C@@H]1C2C=CC(C2)[C@@H]1C(=O)O (stereo partly drawn) ?
Marked response: 5.30 to 6.00

Exam item: Another: C#CCOc1ccc(-c2ccc3nc(N4C(=O)[C@@H]5[C@H](C4=O)[C@@H]4C=C[C@H]5C4)sc3c2)cc1
Marked response: > 6.00

Exam item: Continue with O=C(Nc1nc2ccc(Oc3ccc(C(F)(F)F)cc3)cc2s1)[C@@H]1C2C=CC(C2)[C@@H]1C(=O)O (stereo partly drawn)
Marked response: 5.30 to 6.00

Exam item: Same for O=C(Nc1nc2ccc(Nc3ccc(F)cn3)cc2s1)[C@@H]1C2C=CC(C2)[C@@H]1C(=O)O (stereo partly drawn)
Marked response: > 6.00

Exam item: Here is the next compound: O=C1[C@@H]2C3C=CC(C3)[C@@H]2C(=O)N1c1nc2ccc(Nc3ccc(C(F)(F)F)cn3)cc2s1
Marked response: > 6.00

Exam item: Likewise for O=C1[C@@H]2[C@H](C(=O)N1c1nc3ccc(Oc4cc(C(F)(F)F)ccn4)cc3s1)[C@@H]1C=C[C@H]2C1 ?
Marked response: > 6.00

Exam item: And what about the compound Cc1ccc2nc(NC(=O)[C@@H]3C4C=CC(C4)[C@@H]3C(=O)O)sc2c1 (mixture of isomers) ?
Marked response: 5.00 to 5.30

Exam item: // next record Cc1ccc2nc(N3C(=O)[C@@H]4[C@H](C3=O)[C@@H]3C=C[C@H]4C3)sc2c1
Marked response: 5.00 to 5.30

Exam item: Repeat for the following compound: O=C(Nc1nc2ccc(Cc3ccccc3)cc2s1)[C@@H]1C2C=CC(C2)[C@@H]1C(=O)O (stereo partly drawn)
Marked response: > 6.00

Exam item: Continue with O=C(Nc1nc2ccc(-c3ccc(Cl)cc3)cc2s1)[C@@H]1C2C=CC(C2)[C@@H]1C(=O)O (stereo partly drawn)
Marked response: > 6.00

Exam item: Next record, please: O=C(Nc1nc2ccc(-c3cncnc3)cc2s1)[C@@H]1C2C=CC(C2)[C@@H]1C(=O)O (stereo partly drawn)
Marked response: 4.70 to 5.00

Exam item: Field entry: CCc1ccc2nc(NC(=O)[C@@H]3C4C=CC(C4)[C@@H]3C(=O)O)sc2c1 (stereo partly drawn)
Marked response: 5.30 to 6.00

Exam item: Another: O=C1[C@@H]2[C@H](C(=O)N1c1nc3ccc(-c4ccc(O)cc4)cc3s1)[C@@H]1C=C[C@H]2C1
Marked response: 5.00 to 5.30

Exam item: Next compound: O=C1[C@@H]2[C@H](C(=O)N1c1nc3ccc(Oc4ccccc4)cc3s1)[C@@H]1C=C[C@H]2C1
Marked response: 5.30 to 6.00

Exam item: Now consider O=C(Nc1nc2ccc(Nc3ccc(OC(F)(F)F)cn3)cc2s1)[C@@H]1C2C=CC(C2)[C@@H]1C(=O)O (stereo partly drawn) and answer again.
Marked response: > 6.00

Exam item: And O=C(Nc1nc2ccc(C#CC3CC3)cc2s1)[C@@H]1C2C=CC(C2)[C@@H]1C(=O)O (stereo partly drawn) ?
Marked response: > 6.00

Exam item: What do we get for O=C(Nc1nc2ccc(-c3ccc4ncccc4c3)cc2s1)[C@@H]1C2C=CC(C2)[C@@H]1C(=O)O (stereo partly drawn) ?
Marked response: 5.30 to 6.00

Exam item: Next up: O=C1[C@@H]2C3C=CC(C3)[C@@H]2C(=O)N1c1nc2ccc(-c3ccc(F)nc3)cc2s1
Marked response: 5.30 to 6.00

Exam item: Also COc1cc(Nc2ccc3nc(N4C(=O)[C@@H]5C6C=CC(C6)[C@@H]5C4=O)sc3c2)ccn1 , if possible.
Marked response: 5.30 to 6.00

Exam item: What do we get for O=C(Nc1nc2ccc(Oc3cc(C(F)(F)F)ccn3)cc2s1)[C@@H]1C2C=CC(C2)[C@@H]1C(=O)O (stereo partly drawn) ?
Marked response: > 6.00

Exam item: Param item: Cc1ccnc(Oc2ccc3nc(NC(=O)[C@@H]4C5C=CC(C5)[C@@H]4C(=O)O)sc3c2)c1 (stereo partly drawn)
Marked response: > 6.00

Exam item: Now the same for O=C1[C@@H]2C3C=CC(C3)[C@@H]2C(=O)N1c1nc2ccc(Nc3cccc(C(F)(F)F)n3)cc2s1
Marked response: > 6.00

Exam item: Do the same for O=C(Nc1nc2ccc(Oc3ccnc(C(F)(F)F)c3)cc2s1)[C@@H]1C2C=CC(C2)[C@@H]1C(=O)O (stereo partly drawn) please
Marked response: > 6.00

Exam item: Then what about the compound N#Cc1ccnc(Oc2ccc3nc(N4C(=O)[C@@H]5[C@H](C4=O)[C@@H]4C=C[C@H]5C4)sc3c2)c1 ?
Marked response: 5.00 to 5.30

Exam item: Would you mind doing O=C(Nc1nc2ccc(Oc3ccccc3)cc2s1)[C@@H]1C2C=CC(C2)[C@@H]1C(=O)O (stereo partly drawn) [Example 17] as well?
Marked response: > 6.00

Exam item: Subsequent entry: Cc1ccnc(Nc2ccc3nc(NC(=O)[C@@H]4C5C=CC(C5)[C@@H]4C(=O)O)sc3c2)c1 (stereo partly drawn)
Marked response: 5.30 to 6.00

Exam item: Subsequent entry: O=C(Nc1nc2ccc(Nc3cc(F)ccn3)cc2s1)[C@@H]1C2C=CC(C2)[C@@H]1C(=O)O (stereo partly drawn)
Marked response: > 6.00

Exam item: // next record CCOc1ccc2nc(N3C(=O)[C@@H]4[C@H](C3=O)[C@@H]3C=C[C@H]4C3)sc2c1
Marked response: 5.30 to 6.00
